B1: CPEB3 Ribozyme (parent)
chain: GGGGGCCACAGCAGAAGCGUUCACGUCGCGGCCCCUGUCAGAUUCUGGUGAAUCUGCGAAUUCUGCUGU

Variants of: B1
Assay: self-cleavage, relative activity (ratio to wild type); higher = more cleavage; co-transcriptional
ENDPOINT: self-cleavage

Sample records with self-cleavage:
- GGGGGUCACAGCAGAAGCGUUCACGUCGCGGCCUCUGUCAGAUUCUGGUGAAUCUGCGAAUUCUGCUGU [C6U C34U]: 0.944
- GCGGGCCACAGCAGAAGCGUUCACGUCGCGGCCCCUGUCAGAUUCUGGUGAAUCUGUGAAUUCUGCUGU [G2C C57U]: 0.054
- GGGGACCACAGCAGAAGCGUUCACGUUGCGGCCCCUGUCAGAUUCUGGUGAAUCUGCGAAUUCUGCUGU [G5A C27U]: 0.201
- GGGGGCCACAGCAGAAGCGUUCACGUCGCGGCCCCUGUCAGAUUCUCGUGAACCUGCGAAUUCUGCUGU [G47C U53C]: 0.992
- GGGGGCUACAGCGGAAGCGUUCACGUCGCGGCCCCUGUCAGAUUCUGGUGAAUCUGCGAAUUCUGCUGU [C7U A13G]: 0.936

Below are some variants; for each one, tell me its self-cleavage.
1. GGGGGCCGCAGCAGAAGCGUUCACGUCGCGGCCCCUGUCAGAUUCUGGUGAAUCUGCGAAUUCUGCUGU [A8G]
2. GGGGGCCACAGCAGAAGCGUUAACGUCGCGGCCCCUGUCAGAUUCUGGUGAAUCCGCGAAUUCUGCUGU [C22A U55C]
3. GGGGGCCACAGCAGAAGCGUUCACGUCGCGGCCCCUGUCAGCUUCUGGUGAAUCUUCGAAUUCUGCUGU [A42C G56U]

0.929
0.113
0.568
